Cited source for all entries: patent US11415579B2

System Tested: Cdk2(N272C) (C177A) (Homo sapiens, UniProt P24941, C177A/N272C)
Construct: poly-histidine; made in house; host or cells: E. coli
Assay Procedure: Kinetic thiol consumption assay with Cdk2 mutant N272C
Format: binding
Design: key: rate constant with Cdk2 ÷ rate constant with model thiol (fold)
Protocol Conditions: Cdk2 N272, additional mutation C177A
Experimental Endpoint: Rate enhancement, Cdk2 N272
// response body must contain only the number

* C=CC(=O)NC1(c2noc(C)n2)CCCCCC1 | 0.3725

Next item in the queue.
Query: Query (molecule): C=CC(=O)NCc1ccc(OC)cc1 ; field requested: Rate enhancement, Cdk2 N272
Reply: 0.5

###

Reported Rate enhancement, Cdk2 S276C values follow for various compounds
System Tested: Cdk2(S276C) (C177A) (Homo sapiens, UniProt P24941, C177A/S276C)
Construct: poly-histidine; made in house; host or cells: E. coli
Assay Procedure: Kinetic thiol consumption assay with Cdk2 mutant S276C
Format: binding
Parameters: key: rate constant with Cdk2 ÷ rate constant with model thiol (fold)
Protocol Conditions: Cdk2 S276C, additional mutation C177A

Study these solved cases before continuing.
• C=CC(=O)N1CCN(S(C)(=O)=O)CC1c1ccccc1 (centres unmarked) [EL-1160] = 0.7682
• C=CC(=O)N1CCCC1CC1CC2CCC1C2 (centres unmarked) [CA-087] = 0.7322
• C=CC(=O)N1CCCN(Cc2noc(C3CC3)n2)CC1 [CA-079] = 0.6649
• O=S1(=O)C=CC(Br)C1 (centres unmarked) [EN010] = 0.9531
• C=CC(=O)N1CCC(NC(=O)C2CCC2)C1 (centres unmarked) [CA-088] = 0.4395

Query: Query (compound): C=CC(=O)N1CCC2(CC1)NC(=O)N(C)C2=O [CA-046] ; field requested: Rate enhancement, Cdk2 S276C
Reply: 0.7069

Query: Query (compound): C=CC(=O)N1CCN(c2cccc3cccnc23)CC1 [EL-1156] ; field requested: Rate enhancement, Cdk2 S276C
Reply: 1.35

Query: Query (compound): C=CC(=O)NCc1ccc(F)cc1 [BN-62] ; field requested: Rate enhancement, Cdk2 S276C
Reply: 0.7693

###

System Tested: Cdk2(S181C) (C177A) (Homo sapiens, UniProt P24941, C177A/S181C)
Construct: poly-histidine; made in house; host or cells: E. coli
Assay Procedure: Kinetic thiol consumption assay with Cdk2 mutant S181C
Format: binding
Parameters: key: rate constant with Cdk2 ÷ rate constant with model thiol (fold)
Protocol Conditions: Cdk2 S181C, additional mutation C177A
Output schema: class label derived from Rate enhancement, Cdk2 S181C. Mapping: bin 1 (below 0.5), bin 2 (0.5 to below 0.9), bin 3 (0.9 or more)

Sample answers from the record:
* C=CC(=O)NCCN1CCOCC1 | bin 1
* C=CC(=O)NC(C)c1cccc(N2CCOCC2)c1 (stereo not drawn) | bin 2
* C#CCN1CCCN(C(=O)C=C)CC1 | bin 2
* C=CC(=O)N1CCCN2C(=O)CCC12c1ccc(OC)cc1 (stereo not drawn) | bin 3
* C=CC(=O)N1CCC2(CC1)NC(=O)C1(CCCCC1)N2 | bin 1
* C=CC(=O)NC1(C(N)=O)CCCCC1 | bin 3

Query: Hi there! Could you help me figure out the category for C=CC(=O)N1CCN(Cc2noc(C3CC3)n2)CC1 please?
Reply: bin 3
